- tgt: Cytochrome P450 3A4 (Homo sapiens) (UniProt P08684)
- Sequence (P08684 whole entry, looked up): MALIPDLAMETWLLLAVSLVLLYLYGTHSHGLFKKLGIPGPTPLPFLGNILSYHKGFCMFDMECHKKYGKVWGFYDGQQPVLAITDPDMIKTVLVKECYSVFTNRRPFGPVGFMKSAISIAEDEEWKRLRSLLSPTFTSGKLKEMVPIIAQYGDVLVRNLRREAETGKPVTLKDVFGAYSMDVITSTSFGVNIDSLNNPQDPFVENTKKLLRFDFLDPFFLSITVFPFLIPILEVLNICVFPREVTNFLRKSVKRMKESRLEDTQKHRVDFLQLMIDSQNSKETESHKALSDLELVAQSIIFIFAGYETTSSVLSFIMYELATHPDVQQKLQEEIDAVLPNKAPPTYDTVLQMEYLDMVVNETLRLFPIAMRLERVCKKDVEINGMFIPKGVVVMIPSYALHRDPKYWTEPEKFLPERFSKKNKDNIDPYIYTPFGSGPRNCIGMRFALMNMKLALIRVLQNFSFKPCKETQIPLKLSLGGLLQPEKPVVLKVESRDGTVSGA
- experiment notes: Cytochrome P450 Family 3 Subfamily A Member 4 (CYP3A4) small molecule antagonists: luciferase reporter qHTS assay (AID 1671201); also: nearly all actives have a fitted effect of over 50% in size
- reported conditions: P450-Glo CYP3A4 enzyme, luciferin luminescence, 1 h; series mostly up to 115 µM
Results filed as inconclusive are left out. Calls of active or inactive are those of the source. Calls follow the shape of the dose curve; as a rule, active = well fitted inhibition curve with a large enough effect in the repeat runs; inconclusive = weak or mixed curves; inactive = no such curve, though single readings can be large or run the other way.
measured metric: outcome

Nc1nc(N)nc(Cl)n1 : inactive
CC(Cc1ccc(OCC(=O)O)cc1)NCC(O)c1csc(C(F)(F)F)n1 (stereo not drawn) : inactive
CCCCCON=O : inactive

----------
- experiment notes: qHTS assay to identify small molecule antagonists of the constitutive androstane receptor (CAR) signaling pathway - cell viability counter screen (AID 1224837); also: nearly all actives have a fitted effect of over 45% in size
- reported conditions: HepG2-CYP2B6-hCAR viability, CellTiter-Fluor, 23 h, co-treated with 50 nM CITCO; series mostly up to 92.4 µM
Records with an inconclusive call do not appear. Active and inactive are the calls of the source. Calls follow the shape of the dose curve; as a rule, active = well fitted cell-killing curve with a large enough effect in the repeat runs; inconclusive = weak or mixed curves, or effect the other way; inactive = flat fitted curve, though single readings scatter.
// one of TRUE (active), FALSE (inactive), no free text

CC(O)C(=O)[O][Hg][c]1ccccc1 (stereo not drawn) : TRUE
OCC(Br)CBr (stereo not drawn) : FALSE
[O]=[Cr][O][Cr]=[O] : FALSE
O=C(N[C@H]1N=C(c2ccccc2F)c2cccc3c2N(CC3)C1=O)c1cc2ccccc2[nH]1 : FALSE
COc1nc(C)nc(NC(=O)NS(=O)(=O)c2ccccc2Cl)n1 : FALSE
CC(=O)C(Cl)C(=O)N(C)C (stereo not drawn) : FALSE

Query: What did the test return for `Cc1nn(-c2cc(NS(C)(=O)=O)c(Cl)cc2Cl)c(=O)n1C(F)F` ?
Reply: FALSE

Query: What did the test return for `CCCCC/C=C\C/C=C\C/C=C\C/C=C\CCCC(=O)NCC(=O)O` ?
Reply: FALSE
